# SYSTEM_TESTED: Protein tyrosine phosphatase 1B (PTP1B) (Homo sapiens)
# Construct: recombinant human His-PTP1B protein
# Sequence (P18031 whole entry): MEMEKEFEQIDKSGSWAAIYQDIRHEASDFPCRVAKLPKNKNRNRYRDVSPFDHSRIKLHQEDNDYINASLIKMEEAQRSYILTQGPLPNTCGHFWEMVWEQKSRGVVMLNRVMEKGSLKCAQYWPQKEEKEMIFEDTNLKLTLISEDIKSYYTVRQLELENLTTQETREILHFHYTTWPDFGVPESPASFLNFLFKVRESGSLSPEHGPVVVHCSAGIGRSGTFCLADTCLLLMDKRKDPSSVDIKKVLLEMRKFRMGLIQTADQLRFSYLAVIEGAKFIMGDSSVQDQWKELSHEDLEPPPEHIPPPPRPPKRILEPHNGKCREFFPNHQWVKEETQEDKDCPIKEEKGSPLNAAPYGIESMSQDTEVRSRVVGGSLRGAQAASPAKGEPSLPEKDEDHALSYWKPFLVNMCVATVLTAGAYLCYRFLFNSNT
# TEST_METHOD_NOTES: pNPP phosphatase assay with recombinant His-PTP1B, absorbance at […] nm
RESULT_TYPE: IC50

# SMILES_RECORD, TEST_RESULT
data = [
    ("CCCCCCCCCCCCCCOc1ccccc1NC(=O)c1ccccc1C(=O)O", "750 nM"),
]
